System: OVCAR-4
Test: NCI tumour cell line growth inhibition, 48 h
Activity calls are given as the source filed them. Rule as the data show it: active = GI50 up to about 1.1 µM and inactive = higher.
Possible outcomes: True = active, False = inactive

# molecule, group
rows = [
    ("Cc1ccc(C2SC(=N)Nc3c2c(C)nn3C(=O)c2ccncc2)cc1 (stereo unspecified)", "False"),
    ("CCCc1nn(C)c(CCC(=O)N(Cc2ccccc2)Cc2ccccc2)c1CC", "False"),
    ("Cc1cc(O)nc(NNC(C#N)c2ccccc2O)n1 (stereo unspecified)", "False"),
    ("O=C(/C=C/c1ccco1)c1cccc(C(=O)/C=C/c2ccco2)n1", "False"),
    ("O=c1cc(O)ccn1C1C=C(CO)C(O)C1O (stereo unspecified)", "False"),
    ("CC1=C(C)C(=O)OC(C(C)(O)C2(O)CC3OC34C3CC(O)C56OC5C=CC(=O)C6(C)C3CCC42C)C1 (stereo unspecified)", "False"),
    ("O=C1CSC2(CC(/C=C/c3cccc([N+](=O)[O-])c3)=NN2c2cccc(S(=O)(=O)O)c2)N1c1nc2ccccc2s1 (stereo unspecified)", "False"),
    ("O=C(O)CSC(CC(=O)c1ccc(Cl)cc1)c1ccc(Cl)cc1 (stereo unspecified)", "False"),
    ("COc1ccc(-c2c3c(n(C4OC(COC(C)=O)C(OC(C)=O)C(OC(C)=O)C4OC(C)=O)c(=S)c2C#N)CCC3)cc1 (stereo unspecified)", "False"),
    ("NCC#CCNCCCN1CC1", "False"),
    ("O=C1Nc2ccccc2/C1=N/NC(=S)Nc1ccccc1Cl", "False"),
    ("COc1cc(CN2CCCCC2)cc2cc(C(=O)O)c(=O)oc12", "False"),
    ("Cn1c2ncccc2n2c(=O)cc(O)cc12", "False"),
    ("CCCCCC/C=C\\CCCCCCCCCc1cccc(O)c1C(=O)O", "False"),
    ("Cn1c(=O)c2ccccc2[n+]2c(-c3cccc([N+](=O)[O-])c3)csc12", "False"),
    ("COP(=O)(OC)/C(=N\\Nc1ccc([N+](=O)[O-])cc1)NCc1ccccc1", "False"),
    ("COc1cc2c(c(OC)c1OC)-c1ccc(SC)c(=O)cc1C(CC(=O)Oc1cccc(F)c1)C2 (stereo unspecified)", "False"),
    ("CCOC(=O)C1(N)CC1", "False"),
    ("O=c1[nH]c(=S)c2cc3c(=S)[nH]c(=O)n(CCC(c4ccccc4)(c4ccccc4)c4ccccc4)c3nc2n1CCC(c1ccccc1)(c1ccccc1)c1ccccc1", "False"),
    ("Cc1c(N2CCN(C)CC2)nc2ccc(Cl)cc2c1-c1ccccc1", "False"),
    ("Cc1ccc2nc3cc(C)c(=O)cc-3sc2c1", "False"),
    ("Cc1ccc2c(c1)C(C(=O)N[C@@H]1C(=O)N3[C@@H]1SC(C)(C)[C@@H]3C(=O)O)OCCC2 (stereo partly specified)", "False"),
    ("Cc1cc(S(N)(=O)=O)c(S/C(=N\\Nc2ccc([N+](=O)[O-])cc2)c2ccc(Cl)cc2)cc1Cl", "False"),
    ("CC1(O)CCC2(C#N)CCC1C2O (stereo unspecified)", "False"),
    ("CCOC(=O)Cc1nc2ccc3c(c2nc1O)C(=O)c1ccccc1C3=O", "False"),
    ("COc1cc2c(c(OC)c1OC)C(=O)CC2N (stereo unspecified)", "False"),
    ("COc1ccc2c(c1OC)C(C(Cl)(Cl)Cl)N1CCc3cc4c(cc3C1=C2)OCO4 (stereo unspecified)", "False"),
    ("CNC(=O)CNC(=O)CCC(=O)OC", "False"),
    ("O=C(Nc1nc2ccc([N+](=O)[O-])cc2[n+]([O-])n1)C(F)(F)F", "False"),
    ("COC1CC(OC2C(C)OC(OC3C(C)OC(OC4C(C)OC(O[C@H]5CC[C@@]6(C)C(=CC[C@]7(O)[C@@H]6C[C@@H](OC(C)=O)[C@@]6(C)[C@]7(O)CC[C@@]6(O)C(C)=O)C5)CC4OC)CC3OC)CC2OC)OC(C)C1O (stereo partly specified)", "False"),
    ("Cc1cnc[nH]c1=O", "False"),
    ("CC(C)CCC[C@@H](C)[C@H]1CC[C@H]2[C@@H]3CC[C@H]4C[C@H](N)CC[C@]4(C)[C@H]3CC[C@]12C", "False"),
    ("NC(CSc1nc2ccccn2c1[N+](=O)[O-])C(=O)O (stereo unspecified)", "False"),
    ("C[C@H]1CC[C@H](NC(=O)N(CCCl)N=O)CC1", "False"),
    ("N/C(S)=N/N=C/c1ccc(N)cn1", "False"),
    ("CN(C)CC1CCCCCCCCCCCCC(CN(C)C)C1=O (stereo unspecified)", "False"),
    ("CCCC1=C(CC)C(C(=O)Nc2c(C)cccc2C)=NC(S)N1 (stereo unspecified)", "False"),
    ("CC(C)=CCCC1(Sc2ccccc2)C(=O)OCC1C=C(C)C (stereo unspecified)", "False"),
    ("CC1(C)OCC(C(O)C2OC(C)(C)OC2C=O)O1 (stereo unspecified)", "False"),
    ("Cc1ccc(S(=O)(=O)NC(=O)C2(Br)S(=O)(=O)OCCOS2(=O)=O)cc1", "False"),
    ("CC(C)c1ccc(O)c(=O)c(O)c1.CC(C)c1ccc(O)c(=O)cc1.CC(C)c1cccc(=O)c(O)c1.CC(C)c1ccccc(=O)c1O", "True"),
]

====

Tested on: SK-OV-3
Assay: NCI tumour cell line growth inhibition, 48 h
Calls of active or inactive are those of the source. No stated cut-off is given here; in the data, active = GI50 up to about 1.1 µM and inactive = higher.
Outcomes: Y (active), N (inactive)

# compound, group
records = [
    ("CSc1ccc2c(cc1=O)C(NC(=O)c1ccc(C#N)cc1)CCc1cc(O)c(O)c(O)c1-2 (stereo not drawn)", "N"),
    ("Cc1cc(C)c(S(=O)(=O)N[C@@H](/C=C(\\Br)CO)C(C)C)c(C)c1", "N"),
    ("COC(=O)C1C(C(=O)OC)C1(Br)CBr (stereo not drawn)", "N"),
    ("CNC1=CC(=O)C2=C(C1=O)[C@H]1CC[C@]3(C)C(=O)CC[C@H]3[C@@H]1CC2", "N"),
    ("CC(=O)/C=C\\C1CC2C=CC1C2 (stereo not drawn)", "N"),
    ("CN(C)CCNS(=O)(=O)N(C)C", "N"),
    ("N#CCc1nc(C#N)c(N)o1", "N"),
    ("CCN(CC)c1ccc2c(c1)N=C1N=CC=CN1C2(c1ccc(N(C)C)cc1)c1ccc(N(C)C)cc1", "N"),
    ("COC(=O)c1ccccc1/N=C/c1ccc(N(CCC#N)S(=O)(=O)c2ccccc2)cc1", "N"),
    ("[O-]c1c[n+](-c2ccccc2)no1", "N"),
    ("Cc1cc(O)nc(NNC(C#N)c2ccccc2O)n1 (stereo not drawn)", "N"),
    ("O=C1Nc2ccccc2/C1=C/c1ccccc1", "N"),
    ("CC/C(CC(=O)CCC(=O)Nc1ccc(C)c(C)c1)=N\\NC(=O)C(N)=O", "N"),
    ("O=NN(CCCl)C(=O)NC1CCC(=O)NC1=O (stereo not drawn)", "N"),
    ("COc1nc(N)c(C#N)c(C#N)c1C#N", "N"),
    ("COc1cc2c3c(c4ccc(O)cc4c2cc1OC)[C@@H](O)[C@@H]1CCCN1C3", "Y"),
    ("O=C(/C=C/c1c(O)ccc2ccccc12)c1ccc2ccccc2c1", "N"),
    ("CC1=NN(c2nc(N)nc(NS(=O)(=O)c3cc(C)c(Cl)cc3S)n2)C(C)(C)C1", "N"),
    ("C=C(CC)C(=O)c1ccc(OCC(=O)O)c(Cl)c1Cl", "N"),
    ("COc1ccc2[nH]c3nnc(N)c-3nc2c1", "N"),
    ("CCCCCNC(=O)c1c(O)[nH]c(=S)[nH]c1=O", "N"),
    ("Cc1ccccc1C1=C/C(=C(\\SS/C(C(=O)c2ccc(OCC(=O)O)c(Cl)c2Cl)=C2\\C=C(c3ccccc3C)SS2)C(=O)c2ccc(OCC(=O)O)c(Cl)c2Cl)SS1", "N"),
    ("OC1OC(c2ccc[nH]2)C(F)(F)C(F)(F)C1(F)F (stereo not drawn)", "N"),
    ("Cc1c2ccccc2c(/C=N/NC(=O)CSCC(=O)N/N=C/c2c3ccccc3c(C)c3ccccc23)c2ccccc12", "N"),
    ("CN1C(=O)C2C=C3CCCCC3=CC2N(C)C1=O (stereo not drawn)", "N"),
    ("Cc1cc2nc3c(C#N)c(C)c(CCCl)c(Cl)n3c2cc1C", "N"),
    ("CCN(CC)CCNc1ccc([N+](=O)[O-])c2nc3ccc(OC)cc3c(N)c12", "N"),
    ("Cc1c(N2CCN(C)CC2)nc2ccc(Cl)cc2c1-c1ccccc1", "N"),
    ("O=C(NCCSSCCNC(=O)/C(Cc1ccc(O)c(Br)c1)=N/O)/C(Cc1ccc(O)c(Br)c1)=N/O", "Y"),
    ("CC(C)=CCCC1(Sc2ccccc2)C(=O)OCC1C=C(C)C (stereo not drawn)", "N"),
    ("S=C(N/N=C\\C(=N/NC(=S)N1CCCCC1)c1ccccc1)N1CCCCC1", "N"),
    ("Cc1ccc2nc3cc(C)c(=O)cc-3sc2c1", "N"),
    ("CC(=O)OCC(Br)C1(C)CCC(C(C)(C)Br)O1 (stereo not drawn)", "N"),
    ("Cc1ccc(CC[PH](=O)CCc2ccc(C)nc2)cn1", "N"),
    ("CC(=O)NC(CCCNC(=O)OCc1ccccc1)C(=O)O (stereo not drawn)", "N"),
    ("O=C(NCCN1CCOCC1)c1ccc2cc(C(=O)N3CC(CCl)c4ccc([N+](=O)[O-])cc43)[nH]c2c1 (stereo not drawn)", "N"),
    ("Cc1ccc(C2SC(=N)Nc3c2c(C)nn3C(=O)c2ccncc2)cc1 (stereo not drawn)", "N"),
    ("NC(=S)NS(=O)(=O)c1ccc(Cl)cc1Cl", "N"),
]
